Assayed System: T1, Rhesus macaque CD4-HIS (Acro Biosystems, Cat. CD4-C52H7) (rhesus macaque, UniProt P16003 26-390)
T1 construct: Bought reagent; also called Rhesus CD4; rhesus CD4-HIS; not shown: His tag
T1 sequence (P16003 26-390 limits assumed): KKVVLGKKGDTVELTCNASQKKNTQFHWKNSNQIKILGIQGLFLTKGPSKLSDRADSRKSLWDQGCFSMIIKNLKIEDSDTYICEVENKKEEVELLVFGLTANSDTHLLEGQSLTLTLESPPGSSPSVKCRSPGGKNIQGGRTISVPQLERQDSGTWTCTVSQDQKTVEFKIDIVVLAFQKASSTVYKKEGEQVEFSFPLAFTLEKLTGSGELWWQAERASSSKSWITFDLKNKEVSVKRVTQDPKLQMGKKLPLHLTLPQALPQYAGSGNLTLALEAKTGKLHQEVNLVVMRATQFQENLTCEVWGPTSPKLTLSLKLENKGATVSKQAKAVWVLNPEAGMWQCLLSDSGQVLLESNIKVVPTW
Test Name: BLI Octet, mAb on anti-mouse Fc sensor, rhesus CD4-HIS 25-100 nM, 1:1 global fit;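 note: purified antibodies captured at 10 µg/mL, rhesus CD4 analyte run as a three-concentration serial dilution, irrelevant antibody as reference control, one kinetic constant set per antibody from global fitting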
Readout: koff (s⁻¹)

Binder	Readout	Recorded Value
75110_03B16A (antibody, V domains shown, Tested as antibody purified from AlivaMab Mouse hybridoma supernatant (captured by anti-mouse IgG Fc)) VH: EVQLVESGGGLVQPGGSLRLSCAASGFTFSSYWMSWVRQAPGKGLEWVANINEDGSEKNYVDSVKGRFTISRDNAKNSLCLQLNSLRAEDTAVYHCAREGGQWLALDYWGQGTLVTVSS VL: DIQMTQSPSSVSASVGDRVNITCRASQGIRSWLAWYQQKPGKTPKLLICGASSLQSGVPSRFSGSGSGTDFTLTISSLQPEDFATYYCQQANSFPWTFGQGTTVEIK	koff	0.004
75110_01H18A (antibody, V domains shown, Tested as antibody purified from AlivaMab Mouse hybridoma supernatant (captured by anti-mouse IgG Fc)) VH: QVQLQQWGAGLLKPSETLSLTCAVYGGSFSGYYWSWIRQSPGKGLEWIGEINQSGSTNYNPSLKSRVTISVDTSKNQFSLKLSSVTAADTAVYYCARVINWFDSWGQGTLVTVSS VL: DIQMTQSPSSVSASVGDRVTITCRASQGISSWLAWYQQKPGKAPKLLIYAASSFQSGVPSRFSGSGSGTDFTLTISSLQTEDFATYYCQQANSFPYTFGQGTRLEIK	koff	0.017
75110_05B13A (antibody, V domains shown, Tested as antibody purified from AlivaMab Mouse hybridoma supernatant (captured by anti-mouse IgG Fc)) VH: QVLLEQWGAGLLKPSETLSLTCAVYGGSFSGYYWTWIRQPPGKGLEWIGEINHRGSTNYNPSLKSRVTISIDTSKNQFSLKVKSVTAADTAMYYCTRPDSNWFDPWGQGTLVTVSS VL: DIQMTQSPSSVSASVGDRVTITCRASQDISNWLAWYQQKPGKAPKLLIFAASSLQSGVPSRFSGSGSGTDFTLTISSLQPEDFATYYCQQANSFPLTFGGGTKVEIK	koff	0.002
